System: anti-peptide IgG in plasma
assayDetails: Test Example 4: peptide-specific IgG titer pre and post vaccination, bead-based multiplexed Luminex assay
Assay type: in vivo, human
particulars: number of 2,588 patients below 10 FIU
Note to self: class labels come from recorded Pre-vaccination IgG Negative patients, ranges listed here: lo: < 600; med: ≥ 600 and < 700; hi: ≥ 700

Check out these entries, answers already filled in.
ASLDSDPWV (listed as Homo sapiens) [WHSC2-103] ... hi
TFDYLRSVL (listed as Homo sapiens) [Lck-486] ... lo
ILEQSGEWWK (listed as Homo sapiens) [Lck-90] ... lo
RLAEYQAYI (listed as Homo sapiens) [SART3-309] ... med
LLQAEAPRL (listed as Homo sapiens) [SART3-302] ... hi
WLEYYNLER (listed as Homo sapiens) [SART3-511] ... med
KLVERLGAA (listed as Homo sapiens) [Lck-246] ... hi

-- ask Dear colleague, I would appreciate it if you could identify the bin for HYRKWIKDTI (listed as Homo sapiens) [PSA-248] and reply at your convenience.
-- reply lo

###

Can you tell me HR for the items I'm about to list?
System: cancer patients
assayDetails: Test Example 4: correlation between vaccination with individual peptides (or peptide sets) and OS, Cox proportional hazards regression
Format: in vivo, human
particulars: Table 19; 2,085 advanced cancer patients (stage IV+recurrence); Cox proportional hazards regression, OS
Protocol: The Student's t-test and the chi-square test were used to compare quantitative and categorical variables, respectively. OS was calculated as the time in months from the date of clinical trial enrollment to death or to the date of last contact. Time-to-event endpoints were analyzed using the Kaplan-Meier method, and between-group comparison for OS was conducted using the log-rank test. […] Correlation levels of the 31 peptides for OS were evaluated by the Cox proportional hazards regression model. […]
Answers are plain numbers.

NYSVRYRPGL (listed as Homo sapiens) [MRP3-1293] ... 1.0
HYTNASDGL (listed as Homo sapiens) [Lck-208] ... 0.7
DVWSFGILL (listed as Homo sapiens) [Lck-422] ... 1.1
DLLSHAFFA (listed as Homo sapiens) [MAP-432] ... 1.1
ASLDSDPWV (listed as Homo sapiens) [WHSC2-103] ... 1.0
TFDYLRSVL (listed as Homo sapiens) [Lck-486] ... 0.9
ILEQSGEWWK (listed as Homo sapiens) [Lck-90] ... 1.0
AYDFLYNYL (listed as Homo sapiens) [SART2-161] ... 0.9
WLEYYNLER (listed as Homo sapiens) [SART3-511] ... 1.0
VIQNLERGYR (listed as Homo sapiens) [Lck-449] ... 0.8

Below is a list of sequences. For each, state its recorded HR.
1. LYAWEPSFL (listed as Homo sapiens) [MRP3-503]
2. DYSARWNEI (listed as Homo sapiens) [SART2-93]
3. ALVEFEDVL (listed as Homo sapiens) [HNRPL-140]
4. KLVERLGAA (listed as Homo sapiens) [Lck-246]
5. QIRPIFSNR (listed as Homo sapiens) [SART3-734]

-- reply
0.9
1.0
0.8
1.0
1.0

###

Tested on: cancer patients
assayDetails: Test Example 4: correlation between vaccination with individual peptides (or peptide sets) and OS, Cox proportional hazards regression
Format: in vivo, human
particulars: Table 19; 2,085 advanced cancer patients (stage IV+recurrence); Cox proportional hazards regression, OS
Can you tell me HR for the items I'm about to list?
One number for each entry.

HYRKWIKDTI (listed as Homo sapiens) [PSA-248] ... 0.9

Below is a list of sequences. For each, state its recorded HR.
1. RYLTQETNKV (listed as Homo sapiens) [PTHrP-102]
2. ILGELREKV (listed as Homo sapiens) [WHSC2-141]
3. KYVGIEREM (listed as Homo sapiens) [EZH2-735]
4. NVLHFFNAPL (listed as Homo sapiens) [HNRPL-501]
5. TYSVSFDSL (listed as Homo sapiens) [PSMA-624]
6. LLQAEAPRL (listed as Homo sapiens) [SART3-302]
7. LYCESVHNF (listed as Homo sapiens) [PAP-213]
8. GIHKQKEKSR (listed as Homo sapiens) [PAP-248]

-- reply
0.9
1.0
0.9
1.0
1.1
0.9
0.8
0.8

-- ask I would be grateful if you could share the reported HR for VYDYNCHVDL (listed as Homo sapiens) [SART3-109] .
-- reply 1.0
